# target: TRPM7/CHAK1 (Homo sapiens, UniProt Q96QT4)
# Construct: purchased Reaction Biology Corp
# Sequence (Q96QT4 whole entry): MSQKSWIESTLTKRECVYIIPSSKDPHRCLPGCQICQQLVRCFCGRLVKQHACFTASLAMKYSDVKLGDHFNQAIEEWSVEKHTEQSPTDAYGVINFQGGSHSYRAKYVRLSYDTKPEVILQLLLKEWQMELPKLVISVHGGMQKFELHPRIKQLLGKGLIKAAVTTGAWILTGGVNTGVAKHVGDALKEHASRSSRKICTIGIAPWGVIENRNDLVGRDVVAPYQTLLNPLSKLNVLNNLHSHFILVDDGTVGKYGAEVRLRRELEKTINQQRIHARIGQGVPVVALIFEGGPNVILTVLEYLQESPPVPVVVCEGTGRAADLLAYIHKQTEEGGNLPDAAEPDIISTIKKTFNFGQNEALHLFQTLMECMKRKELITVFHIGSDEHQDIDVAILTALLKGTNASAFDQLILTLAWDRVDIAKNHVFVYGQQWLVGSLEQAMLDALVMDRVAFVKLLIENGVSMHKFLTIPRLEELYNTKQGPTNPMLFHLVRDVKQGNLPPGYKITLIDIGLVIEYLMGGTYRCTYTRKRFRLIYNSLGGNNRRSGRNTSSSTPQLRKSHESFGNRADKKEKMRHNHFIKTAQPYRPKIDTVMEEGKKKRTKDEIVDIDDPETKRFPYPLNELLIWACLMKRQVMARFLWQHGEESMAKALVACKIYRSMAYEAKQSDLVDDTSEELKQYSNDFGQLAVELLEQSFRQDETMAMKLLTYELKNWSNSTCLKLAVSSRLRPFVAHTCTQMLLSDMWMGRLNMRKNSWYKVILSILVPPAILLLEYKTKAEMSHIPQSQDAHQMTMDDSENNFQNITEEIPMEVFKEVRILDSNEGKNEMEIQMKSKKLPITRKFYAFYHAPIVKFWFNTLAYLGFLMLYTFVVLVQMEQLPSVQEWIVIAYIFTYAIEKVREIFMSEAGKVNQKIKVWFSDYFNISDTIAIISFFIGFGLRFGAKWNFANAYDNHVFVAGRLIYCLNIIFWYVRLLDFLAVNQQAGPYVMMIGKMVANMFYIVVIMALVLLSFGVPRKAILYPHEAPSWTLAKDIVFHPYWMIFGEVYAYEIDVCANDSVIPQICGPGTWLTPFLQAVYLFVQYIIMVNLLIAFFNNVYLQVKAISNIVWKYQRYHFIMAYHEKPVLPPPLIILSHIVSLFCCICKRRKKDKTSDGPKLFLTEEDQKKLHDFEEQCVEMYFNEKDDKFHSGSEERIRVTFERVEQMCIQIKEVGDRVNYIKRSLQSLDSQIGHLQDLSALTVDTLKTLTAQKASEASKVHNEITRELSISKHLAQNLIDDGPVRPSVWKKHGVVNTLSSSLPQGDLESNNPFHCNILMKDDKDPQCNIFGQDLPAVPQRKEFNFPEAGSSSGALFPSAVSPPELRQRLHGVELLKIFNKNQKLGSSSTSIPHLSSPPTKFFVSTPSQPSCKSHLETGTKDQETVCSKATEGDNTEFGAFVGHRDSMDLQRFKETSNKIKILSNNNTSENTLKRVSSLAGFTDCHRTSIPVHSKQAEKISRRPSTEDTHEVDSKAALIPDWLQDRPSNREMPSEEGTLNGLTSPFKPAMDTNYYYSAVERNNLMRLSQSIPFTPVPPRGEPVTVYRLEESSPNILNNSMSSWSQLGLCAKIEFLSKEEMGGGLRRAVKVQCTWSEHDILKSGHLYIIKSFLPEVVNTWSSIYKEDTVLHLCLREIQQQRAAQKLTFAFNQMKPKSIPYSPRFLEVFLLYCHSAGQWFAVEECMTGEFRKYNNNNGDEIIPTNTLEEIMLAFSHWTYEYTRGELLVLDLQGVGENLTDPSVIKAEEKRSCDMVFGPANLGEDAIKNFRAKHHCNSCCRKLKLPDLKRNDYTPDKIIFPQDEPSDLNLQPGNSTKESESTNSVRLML
# measurement_protocol: Kinase panel assay (radiolabelled)
# Format: biochemical
# condition_label: control NH125
experimental_endpoint: IC50 (µM)
Output spec: scalar in µM, unitless text.

In: If you can, please state the reported IC50 value of CCCCCCCCCCCCCCCCn1cc[n+](Cc2ccccc2)c1C [NH125, reference compound] .
Out: 5.86

====

Assign viability at 24 h, 5 µM to each entry below.
# measurement_protocol: MTT cell viability assay
# Format: cell-based, murine
# condition_label: mouse, BV-2 microglia cells (LPS-activated), 5 μM compound, % of LPS, mean ± SD
Output spec: scalar in %, unitless text.

In: If you can, please state the reported viability at 24 h, 5 µM value of CC(=O)Nc1ccc(-n2cc(CC3COC4(C=CC(=O)C=C4)N(c4ccccc4)C3=O)nn2)cc1 (stereo not drawn) .
Out: 109

In: Proceed to O=C1C=CC2(C=C1)OCC(Cc1cn(-c3ccc(Br)cc3)nn1)C(=O)N2c1ccccc1 (stereo not drawn)
Out: 93

In: Proceed to CSc1ccc(-n2cc(CC3COC4(C=CC(=O)C=C4)N(c4ccccc4)C3=O)nn2)cc1 (stereo not drawn)
Out: 121

In: Proceed to C#CCC1COC2(C=CC(=O)C=C2)N(c2ccccc2)C1=O (stereo not drawn)
Out: 100

In: Proceed to Cc1cc(=O)oc2cc(-n3cc(CC4COC5(C=CC(=O)C=C5)N(c5ccccc5)C4=O)nn3)ccc12 (stereo not drawn)
Out: 97

In: Proceed to O=C1C=CC2(C=C1)OCC(Cc1cn(-c3ccccc3)nn1)C(=O)N2c1ccccc1 (stereo not drawn)
Out: 81

In: Proceed to O=C1C=CC2(C=C1)OCC(Cc1cn(-c3cccc(Cl)c3)nn1)C(=O)N2c1ccccc1 (stereo not drawn)
Out: 90

In: Proceed to O=C1C=CC2(C=C1)OCC(Cc1cn(-c3ccc(F)cc3)nn1)C(=O)N2c1ccccc1 (stereo not drawn)
Out: 109

In: Proceed to O=C1C=CC2(C=C1)OCC(Cc1cn(-c3cccnc3)nn1)C(=O)N2c1ccccc1 (stereo not drawn)
Out: 120

In: Proceed to O=C1C=CC2(C=C1)OCC(Cc1cn(C34CC5CC(CC(C5)C3)C4)nn1)C(=O)N2c1ccccc1 (stereo not drawn)
Out: 87

In: Proceed to O=C1C=CC2(C=C1)OCC(Cc1cn(Cc3ccccc3)nn1)C(=O)N2c1ccccc1 (stereo not drawn)
Out: 75

In: Proceed to O=C1C=CC2(C=C1)OCC(Cc1cn(-c3ccc4c(c3)OCO4)nn1)C(=O)N2c1ccccc1 (stereo not drawn)
Out: 89

In: Proceed to COc1cc(OC)cc(-n2cc(CC3COC4(C=CC(=O)C=C4)N(c4ccccc4)C3=O)nn2)c1 (stereo not drawn)
Out: 108

In: Proceed to O=C1C=CC2(C=C1)OCC(Cc1cn(-c3cccc(Cc4ccccc4)c3)nn1)C(=O)N2c1ccccc1 (stereo not drawn)
Out: 74

In: Proceed to COc1cc(-n2cc(CC3COC4(C=CC(=O)C=C4)N(c4ccccc4)C3=O)nn2)ccc1F (stereo not drawn)
Out: 102

In: Proceed to O=C1C=CC2(C=C1)OCC(Cc1ccccc1)C(=O)N2c1ccccc1 (stereo not drawn)
Out: 74

In: Proceed to O=C1C=CC2(C=C1)OCC(Cc1cn(-c3ccc(S(=O)(=O)C(F)(F)F)cc3)nn1)C(=O)N2c1ccccc1 (stereo not drawn)
Out: 71

In: Proceed to N#Cc1cccc(-n2cc(CC3COC4(C=CC(=O)C=C4)N(c4ccccc4)C3=O)nn2)c1 (stereo not drawn)
Out: 128

In: Proceed to COc1ccc(-n2cc(CC3COC4(C=CC(=O)C=C4)N(c4ccccc4)C3=O)nn2)cc1 (stereo not drawn)
Out: 124

In: Proceed to O=C1C=CC2(C=C1)OCC(Cc1cn(-c3ccc(C(F)(F)F)cc3)nn1)C(=O)N2c1ccccc1 (stereo not drawn)
Out: 115

In: Proceed to [H]/N=C(/NC)NCCC[C@H](N)C(=O)O [L-NMMA, NG-mono-methyl-L-arginine, reference compound]
Out: 105
